test: molar heat capacity at constant pressure; settings: 362.08 K; 1000 kPa; Liquid
In this section we review reported molar heat capacity at constant pressure values for a set of molecules.
Output spec: scalar in J/K/mol, unitless text.

Completed entries (count: 3):
1) CCCCOCCOCCOCCCC: 480.33
2) CCOCCOCCOCC: 360.79
3) COCC(C)OCC(C)OC (centres undefined): 349.92

Proceed to the following item.
The molecule listed as `CCCCOCCOCCOCCOCCCC` shows molar heat capacity at constant pressure equal to 571.48

---

conditions: 393.15 K; 101.33 kPa; Liquid; Capillary tube (Ostwald / Ubbelohde) method
In this section we review reported kinematic viscosity values for a set of compounds.
Output spec: scalar in m2/s, unitless text.

1. CCOCCOCCOCC: 4.93e-07

The compound listed as COCC(C)OCC(C)OC (centres undefined) shows kinematic viscosity equal to 4.37e-07

The compound listed as `CCCCOCCOCCOCCOCCCC` shows kinematic viscosity equal to 9.49e-07

The compound listed as `CCCCOCCOCCOCCCC` shows kinematic viscosity equal to 7.28e-07

---

In this section we review reported kinematic viscosity values for a set of compounds.
settings: 413.15 K; 101.33 kPa; Liquid; Capillary tube (Ostwald / Ubbelohde) method
Output spec: scalar in m2/s, unitless text.

Completed entries (count: 3):
1) CCCCOCCOCCOCCCC: 6.21e-07
2) CCCCOCCOCCOCCOCCCC: 7.98e-07
3) CCOCCOCCOCC: 4.29e-07

The compound listed as COCC(C)OCC(C)OC (centres undefined) shows kinematic viscosity equal to 3.81e-07

---

test: molar heat capacity at constant pressure; settings: 371.98 K; 1000 kPa; Liquid
recorded-metric: molar heat capacity at constant pressure (J/K/mol)
Output spec: scalar in J/K/mol, unitless text.

1) CCOCCOCCOCC [diethylene glycol diethyl ether]: 364.85
2) COCC(C)OCC(C)OC (centres undefined) [2-methoxy-1-(2-methoxy-1-methylethoxy)propane]: 354.14
3) CCCCOCCOCCOCCCC [5,8,11-trioxapentadecane]: 486.88

The compound listed as CCCCOCCOCCOCCOCCCC [5,8,11,14-tetraoxaoctadecane] shows molar heat capacity at constant pressure equal to 578.82

---

details: 403.15 K; 101.33 kPa; Liquid; Capillary tube (Ostwald / Ubbelohde) method
In this section we review reported kinematic viscosity values for a set of compounds.
Report as: number unit

Completed entries (count: 3):
1. CCCCOCCOCCOCCCC [5,8,11-trioxapentadecane]: 6.7e-07 m2/s
2. COCC(C)OCC(C)OC (centres undefined) [2-methoxy-1-(2-methoxy-1-methylethoxy)propane]: 4.07e-07 m2/s
3. CCCCOCCOCCOCCOCCCC [5,8,11,14-tetraoxaoctadecane]: 8.68e-07 m2/s

Proceed to the following item.
The compound listed as CCOCCOCCOCC [diethylene glycol diethyl ether] shows kinematic viscosity equal to 4.59e-07 m2/s

---

In this section we review reported molar heat capacity at constant pressure values for a set of compounds.
assay: molar heat capacity at constant pressure; details: 322.47 K; 1000 kPa; Liquid
Output spec: scalar in J/K/mol, unitless text.

1) CCCCOCCOCCOCCCC: 460.9

The compound listed as `CCCCOCCOCCOCCOCCCC` shows molar heat capacity at constant pressure equal to 547.86

The compound listed as `CCOCCOCCOCC` shows molar heat capacity at constant pressure equal to 351.22

The compound listed as COCC(C)OCC(C)OC (centres undefined) shows molar heat capacity at constant pressure equal to 332.56
